Cited source: the supplement of paper PMC10567573

B1: NP_116010.1 (parent)
chain: HSLRAVSTDPPHHDHHDEFCLMP

Variants of: B1
procedure.summary: protein stability index of a GFP-peptide fusion (GPS, HEK-293T) (PSI 1-6); higher = more stable;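 also: lentivirally expressed fusion library, cells FACS-sorted into six equal-sized GFP/DsRed ratio bins, PSI computed from sequencing read fractions per bin weighted by bin number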
particulars: c terminus: native
Recorded protein stability index for the following variants

mutant.designation	protein stability index
P10N	2.27
A5F	2.79
A5C	2.6
S7H	2.53
H12A	2.44
D14A	2.52
T8Y	2.54
D17Q	2.2
S7C	2.48
F19T	2.67
H12D	2.73
H13C	2.58
H16G	2.64
H15G	2.88
R4T	3.08
S7I	2.4
P10L	2.43
D17E	2.66
S7L	2.08
H13L	2.73
T8G	2.68
H12L	2.79
